# TARGET UNDER TEST: T1, human MAdCAM expressed on cells (human, UniProt Q13477 19-382)
# T1 construct: whole, on cells; also called MADCAM1
# T1 sequence (looked up): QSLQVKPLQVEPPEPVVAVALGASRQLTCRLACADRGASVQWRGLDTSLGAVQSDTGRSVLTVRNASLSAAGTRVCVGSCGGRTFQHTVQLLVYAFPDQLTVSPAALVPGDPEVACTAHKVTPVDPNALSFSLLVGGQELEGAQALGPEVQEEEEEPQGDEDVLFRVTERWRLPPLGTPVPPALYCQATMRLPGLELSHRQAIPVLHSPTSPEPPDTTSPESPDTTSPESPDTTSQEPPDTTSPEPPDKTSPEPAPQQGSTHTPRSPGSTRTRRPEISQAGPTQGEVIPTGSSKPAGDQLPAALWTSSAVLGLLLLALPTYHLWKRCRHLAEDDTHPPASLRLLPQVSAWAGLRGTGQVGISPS
# ASSAY DETAILS: cell binding
PROPERTY NAME: binding result

[[record]]
binder = "MAdCAM antibody Clone ID 63 of Table 6 (scFv) (scFv) scFv: EVQLLESGGGLVKPGGSLRLSCAASGFTFDDYAMHWVRQAPGKGLEWVASITSSSAFIDYAASVKGRFTISRDDSKNTLYLQMNSLKTEDTAVYYCARERVDWNSYFDLWGRGTLVTVSSGGGGSGGGGSGGGGSGGGGSEIVMTQSPATLSVSPGERATLSCRASQGISNSYLAWYQQKPGQAPRLLIYGASTRATGIPARFSGSGSGTEFTLTISSLQSEDFAVYYCQQYYTYPPTFGPGTKVDIK"
val = "binds"

